Cited source: ChEMBL document CHEMBL3393048

Attribute: pIC50
# Tested system: Tubulin
# Experiment: Inhibition of tubulin polymerization (unknown origin) by DAPI staining-based fluorescence microscopy
Remember, pIC50 is on a log scale: it is -log10 of the molar concentration.

The recorded pIC50 for "COc1ccc(/C=C/C(=O)c2ccccc2-c2cccc(F)c2)cc1O" is 6.31

The recorded pIC50 for "COc1ccc(/C=C/C(=O)c2ccccc2-c2ccc(F)cc2)cc1B(O)O" is 5.47

The recorded pIC50 for "COc1ccc(/C=C/C(=O)c2ccccc2-c2ccc(F)cc2)cc1O" is 5.89

The recorded pIC50 for "COc1ccc(/C=C/C(=O)c2ccccc2-c2cccc(F)c2)cc1" is 5.40

The recorded pIC50 for "COc1ccc(/C=C/C(=O)c2ccccc2-c2cc(OC)c(OC)c(OC)c2)cc1O" is 5.55

The recorded pIC50 for "COc1ccc(/C=C/C(=O)c2ccccc2-c2ccc(F)cc2)cc1" is 5.74

The recorded pIC50 for "CN(C)c1ccc(/C=C/C(=O)c2ccccc2-c2ccc(F)cc2)cc1" is 5.44

###

# Test system: A2780
# Experiment: Antiproliferative activity against human A2780 cells after 48 hrs by SRB method
# Assay type: functional, cell-based
# Condition details: A2780, 48 h
Property name: pIC50
Remember, pIC50 is on a log scale: it is -log10 of the molar concentration.

Input smiles: COc1ccc(/C=C/C(=O)c2ccccc2-c2cc(OC)c(OC)c(OC)c2)cc1O
Property name: pIC50
Numeric value: 6.42
--
Input smiles: COc1ccc(/C=C/C(=O)c2ccccc2-c2cccc(F)c2)cc1O
Property name: pIC50
Numeric value: 7.89
--
Input smiles: CN(C)c1ccc(/C=C/C(=O)c2ccccc2-c2ccc(F)cc2)cc1
Property name: pIC50
Numeric value: 7.03
--
Input smiles: COc1ccc(/C=C/C(=O)c2ccccc2-c2ccc(F)cc2)cc1B(O)O
Property name: pIC50
Numeric value: 7.20
--
Input smiles: COc1ccc(/C=C/C(=O)c2ccccc2-c2ccc(F)cc2)cc1O
Property name: pIC50
Numeric value: 7.57

The recorded pIC50 for "COc1ccc(/C=C/C(=O)c2ccccc2-c2ccc(F)cc2)cc1" is 6.77

The recorded pIC50 for "COc1ccc(/C=C/C(=O)c2ccccc2-c2cccc(F)c2)cc1" is 6.80

###

# Tested system: Tubulin (Homo sapiens) (UniProt P68371+Q9H4B7+P0DPH7+P68366+Q13509+Q71U36+P04350+Q3ZCM7+P07437+P68363+Q9BQE3+Q6PEY2+Q13885+Q9BVA1+Q9BUF5)
# Experiment: Inhibition of tubulin polymerization (unknown origin) at 20 uM by DAPI staining-based fluorescence microscopy
# Format: protein-complex assay
Calls of active or inactive are those of the source. No cut-off for these calls is given here.
Response enum: active, inactive

Use the examples below as a reference point.
Input smiles: COc1ccc(-c2ccccc2C(=O)/C=C/c2ccc(F)cc2)cc1OC
Label class: inactive
//
Input smiles: COc1cccc(/C=C/C(=O)c2ccccc2-c2ccc(F)cc2)c1OC
Label class: active
//
Input smiles: COc1ccc(-c2ccccc2C(=O)/C=C/c2ccc(Br)cc2)cc1OC
Label class: inactive
//
Input smiles: COc1ccc(OC)c(/C=C/C(=O)c2ccccc2-c2ccc(OC)c(OC)c2)c1
Label class: active

Challenge: Any idea what this test logged for "O=C(/C=C/c1cccs1)c1ccccc1-c1ccc(F)cc1" ?
Response given: active

###

Attribute: IC50
# Experiment: Antiproliferative activity against vincristine-resistant human HCT8 cells after 48 hrs by SRB method
# Assay type: functional, cell-based
# Condition details: HCT-8, 48 h
Answer shape: numeric part, then the unit.

Record excerpt, results attached:
Molecule: CC[C@]1(O)C[C@H]2CN(CCc3c([nH]c4ccccc34)[C@@](C(=O)OC)(c3cc4c(cc3OC)N(C=O)[C@H]3[C@@](O)(C(=O)OC)[C@H](OC(C)=O)[C@]5(CC)C=CCN6CC[C@]43[C@@H]65)C2)C1 [VINCRISTINE]
IC50: 1900 nM
--
Molecule: COc1ccc(/C=C/C(=O)c2ccccc2-c2ccc(F)cc2)cc1B(O)O
IC50: 84 nM

Now examine the next entry.
The recorded IC50 for COc1cccc2c1C(=O)c1c(O)c3c(c(O)c1C2=O)C[C@@](O)(C(=O)CO)C[C@@H]3O[C@H]1C[C@H](N)[C@H](O)[C@H](C)O1 [DOXORUBICIN] is 3400 nM

###

# System: SW480
# Experiment: Antiproliferative activity against human SW480 cells after 48 hrs by SRB method
# Type: functional, cell-based
# Condition details: SW480, 48 h
Property name: pIC50
Remember, pIC50 is on a log scale: it is -log10 of the molar concentration.

Record excerpt, results attached:
Input smiles: COc1ccc(/C=C/C(=O)c2ccccc2-c2cccc(F)c2)cc1OC
pIC50: 6.80

Input smiles: COc1ccc(/C=C/C(=O)c2ccccc2-c2ccc(F)cc2)cc1
pIC50: 7.21

Input smiles: COc1ccc(/C=C/C(=O)c2ccccc2-c2cccnc2)cc1
pIC50: 6.70

The recorded pIC50 for "COc1ccc(C(=O)/C=C/c2ccccc2-c2ccc(F)cc2)cc1OC" is 5.08

The recorded pIC50 for "COc1ccc(/C=C/C(=O)c2ccccc2-c2cccc(F)c2)cc1" is 6.85

The recorded pIC50 for "COc1ccc(C(=O)/C=C/c2ccccc2-c2ccc(F)nc2)cc1O" is 5.80

###

# Experiment: Antiproliferative activity against vincristine-resistant human HCT8 cells after 48 hrs by SRB method
# Type: functional, cell-based
# Condition details: HCT-8, 48 h
Property name: IC50 (µM)
Output spec: scalar in µM, unitless text.

The recorded IC50 for CC(=O)O[C@H]1C(=O)[C@@]2(C)[C@H]([C@H](OC(=O)c3ccccc3)[C@]3(O)C[C@H](OC(=O)[C@H](O)[C@@H](NC(=O)c4ccccc4)c4ccccc4)C(C)=C1C3(C)C)[C@]1(OC(C)=O)CO[C@@H]1C[C@@H]2O [PACLITAXEL] is 2.6

The recorded IC50 for "COc1ccc(/C=C/C(=O)c2ccccc2-c2ccc(F)cc2)cc1O" is 0.42

The recorded IC50 for "CN(C)c1ccc(/C=C/C(=O)c2ccccc2-c2ccc(F)cc2)cc1" is 0.096

###

# System: HepG2
# Experiment: Antiproliferative activity against human HepG2 cells after 48 hrs by SRB method
# Assay type: functional, cell-based
# Condition details: HepG2, 48 h
Property name: log10(IC50) (log10 of the value in nM)
# values: log10(IC50), units nM

Record excerpt, results attached:
Input smiles: COc1ccc(/C=C/C(=O)c2ccccc2-c2ccc(OC)c(OC)c2)cc1
Tested system: HepG2
Property name: log10(IC50)
Numeric value: 2.78
--
Input smiles: COc1ccc(/C=C/C(=O)c2ccccc2-c2cccc(F)c2)cc1
Tested system: HepG2
Property name: log10(IC50)
Numeric value: 2.04
--
Input smiles: O=C(/C=C/c1cccs1)c1ccccc1-c1ccc(F)cc1
Tested system: HepG2
Property name: log10(IC50)
Numeric value: 3.79
--
Input smiles: COc1ccc(/C=C/C(=O)c2ccccc2-c2cccnc2)cc1
Tested system: HepG2
Property name: log10(IC50)
Numeric value: 1.99

The recorded log10(IC50) for "COc1ccc(/C=C/C(=O)c2ccccc2-c2ccc(F)nc2)cc1" is 2.46

The recorded log10(IC50) for "COc1ccc(C(=O)/C=C/c2ccccc2-c2ccc(F)cc2)cc1" is 3.80

###

# Test system: SW480
# Experiment: Antiproliferative activity against human SW480 cells after 48 hrs by SRB method
# Type: functional, cell-based
# Condition details: SW480, 48 h
Property name: IC50 (µM)
Output spec: scalar in µM, unitless text.

Compound: COc1ccc(-c2ccccc2C(=O)/C=C/c2ccc(F)cc2)cc1OC
IC50 / µM: 6.8
//
Compound: COc1ccc(/C=C/C(=O)c2ccccc2-c2ccc(F)cc2)cc1OC
IC50 / µM: 0.57
//
Compound: COc1cc(C(=O)/C=C/c2ccccc2-c2ccc(F)cc2)cc(OC)c1OC
IC50 / µM: 2.2
//
Compound: COc1ccc(/C=C/C(=O)c2ccccc2-c2ccc(OC)c(OC)c2)cc1OC
IC50 / µM: 7.6
//
Compound: COc1cccc(/C=C/C(=O)c2ccccc2-c2ccc(F)cc2)c1OC
IC50 / µM: 5.7

The recorded IC50 for "COc1ccc(/C=C/C(=O)c2ccccc2-c2cc(OC)c(OC)c(OC)c2)cc1O" is 0.3

The recorded IC50 for "COc1ccc(C(=O)/C=C/c2ccccc2-c2ccc(F)cc2)cc1O" is 0.34

The recorded IC50 for "COc1ccc(OC)c(/C=C/C(=O)c2ccccc2-c2ccc(F)cc2)c1" is 2.4
